// data source = ChEMBL document CHEMBL4177665

Test system: RAW264.7
Assay: Cytotoxicity against mouse RAW264.7 cells assessed as reduction in cell viability up to 200 uM measured after 24 hrs in presence of LPS by MTT assay
Format: cell-based
Settings: raw264.7, 24 h
propertyName: Activity

O=C(/C=C/c1ccc(O)cc1)NCCc1c[nH]c2ccc(O)c(-c3c(O)ccc4[nH]cc(CCNC(=O)/C=C/c5ccc(O)cc5)c34)c12 :: Non-Toxic
COc1cc(/C=C/C(=O)NCCc2c[nH]c3ccc(O)cc23)ccc1O [N-FERULOYL SEROTONIN] :: Non-Toxic
COc1cc(/C=C/C(=O)NCCc2c[nH]c3ccc(O)c(-c4c(O)ccc5[nH]cc(CCNC(=O)/C=C/c6ccc(O)cc6)c45)c23)ccc1O :: Non-Toxic
